# Assay: Oil properties: Log P
# Type: physicochemical
# Condition label: oil ingredient
Parameter measured: logP
One number for each entry.

## Input Record request: logP value, item OCCc1ccccc1
## Output 1.52

###

# Assay: Oil properties: Log P
# Format: physicochemical
# Condition label: oil ingredient
Parameter measured: Log P

# annotated cases, reported Log P shown
Compound	Log P
C=CC(C)CCCC(C)(C)O (stereo not shown) [Dihydromycenol]	3.47
C=C(C)[C@H]1CC=C(C)CC1	4.38
C/C=C/C(=O)C1C(C)C=CCC1(C)C (stereo not shown)	4.16

# context switch: different compound, same Log P
## Input Record request: Log P value, item CC(=O)/C=C/C1=C(C)CCCC1(C)C
## Output 3.012
